- test target: T1, human VPAC2 receptor (human, UniProt P41587 24-438)
- T1 sequence (looked up): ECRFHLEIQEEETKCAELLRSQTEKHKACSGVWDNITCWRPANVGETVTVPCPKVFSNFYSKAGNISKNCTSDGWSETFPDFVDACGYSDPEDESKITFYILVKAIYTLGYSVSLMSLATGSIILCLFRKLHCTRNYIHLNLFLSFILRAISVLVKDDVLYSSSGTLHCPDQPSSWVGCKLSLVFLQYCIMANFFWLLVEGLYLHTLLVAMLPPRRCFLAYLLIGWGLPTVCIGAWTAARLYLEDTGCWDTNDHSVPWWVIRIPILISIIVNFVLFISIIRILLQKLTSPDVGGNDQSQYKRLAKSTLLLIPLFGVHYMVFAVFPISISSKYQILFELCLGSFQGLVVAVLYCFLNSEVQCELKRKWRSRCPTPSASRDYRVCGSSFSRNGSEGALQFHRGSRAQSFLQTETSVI
- test summary: cell-based or functional assay
Where no end group is shown, it is not given here. [ ]: non-standard residue; d: D form. The star is where a group is joined. Hexanoyl = CCCCCC(=O)*; Aib = CC(C)(N)C(=O)O
// assign Y if EC50 cAMP, Alpha Screen falls strictly below 0.2 nM, else N (ties count as N)

// below: answered binders
- binder: "Hexanoyl-HSDAVFTDNYTRLRKQVAAKAYLQSIKNKRYGGPSSGAPPPS [P184]"
  group: "N"
- binder: "Hexanoyl-HSDAVFTDNYTRLRKQVAAKKFLQSIKNKRYGGPSSGAPPPS [P130]"
  group: "N"
- binder: "Hexanoyl-HSDAVFTDNYTRL[Aib]KQVAA[Aib]KYLQSIKQKGGPSSGAPPPS (ends and bridges not checked) [P293]"
  group: "N"
- binder: "Hexanoyl-HSDAVFTDNYTRLQ[Aib]QVAAKKYLQSIKNKRYGGPSSGAPPPS (ends and bridges not checked) [P258]"
  group: "Y"

# ---- query binder ----
INPUT: Consider Hexanoyl-HSDAVFTDNYTRLRQQVAAKKYLQSIKNKRYGGPSSGAPPPS [P177] . Does its EC50 cAMP, Alpha Screen lie strictly below 0.2 nM?
OUTPUT: N

These measurements were taken from patent US20080026996A1.
